# System: MRSA ATCC 33592
# Assay: MIC determination in broth
# Assay type: cell-based, Staphylococcus aureus
# Experimental parameters: Table S5; STIP3 variants, highest conc. tested 100 μg/mL; cation-adjusted MH broth, ~10^5 CFU/mL, 2-fold dilution series, 37°C, 16 h
Reported property: MIC, S. aureus ATCC 33592 (SCCmec III) (µg/mL)
Give bare numbers, in µg/mL.

Parameters: items (list). Returns: MIC, S. aureus ATCC 33592 (SCCmec III) for each item.
1. TVGGLVKWILNTVKKFA [STIP3-4, rationally designed STIP3-1 variant]
2. TVGGLVKWILATVKKFA-NH2 [STIP3-28, rationally designed STIP3-1 variant, C-terminal amide]
3. TVGGLVKWILDVVKKFA [STIP3-9, rationally designed STIP3-1 variant]
4. TVGGLVKWILKTVKKFA [STIP3-3, rationally designed STIP3-1 variant]
5. TVGGLVKWILDWVKKFA [STIP3-10, rationally designed STIP3-1 variant]
6. TVXALVXWILXTVAXFA [STIP3-22, rationally designed STIP3-1 variant with L-ornithine]

1: 50; 2: 6.25; 3: 25; 4: 25; 5: 100; 6: 25

----------
# System: MRSA ATCC BAA-2313
# Assay: MIC determination in broth
# Type: cell-based, Staphylococcus aureus
# Experimental parameters: STIP3 variants, highest conc. tested 100 μg/mL; cation-adjusted MH broth, ~10^5 CFU/mL, 2-fold dilution series, 37°C, 16 h
No end group written: not given here.
I'd appreciate it if you could supply MIC, S. aureus ATCC BAA 2313 (SCCmec XI) values for the items below.

[
  {
    "Substance": "TVGGLVKWILKAVKKFA [STIP3-13, rationally designed STIP3-1 variant]",
    "Target of assay": "MRSA ATCC BAA-2313",
    "Result": "25 µg/mL"
  },
  {
    "Substance": "TVGGLVKWILNTVKKFA [STIP3-4, rationally designed STIP3-1 variant]",
    "Target of assay": "MRSA ATCC BAA-2313",
    "Result": "100 µg/mL"
  },
  {
    "Substance": "TVRALVRWILRTVARFA [STIP3-23, rationally designed STIP3-1 variant]",
    "Target of assay": "MRSA ATCC BAA-2313",
    "Result": "25 µg/mL"
  },
  {
    "Substance": "TVGGLVKWILDWVKKFA [STIP3-10, rationally designed STIP3-1 variant]",
    "Target of assay": "MRSA ATCC BAA-2313",
    "Result": "50 µg/mL"
  },
  {
    "Substance": "TVXALVXWILXTVAXFA [STIP3-22, rationally designed STIP3-1 variant with L-ornithine]",
    "Target of assay": "MRSA ATCC BAA-2313",
    "Result": "100 µg/mL"
  },
  {
    "Substance": "TVKALVKWILKTVAKFW-NH2 [STIP3-31, rationally designed STIP3-1 variant, C-terminal amide]",
    "Target of assay": "MRSA ATCC BAA-2313",
    "Result": "25 µg/mL"
  }
]

Parameters: items (list). Returns: MIC, S. aureus ATCC BAA 2313 (SCCmec XI) for each item.
1. TVKALVKWILKTVAKFW [STIP3-21, rationally designed STIP3-1 variant]
2. TVGGLVKWILKTVKKFA [STIP3-3, rationally designed STIP3-1 variant]
3. TVKGLVKWILNVVKKFA [STIP3-14, rationally designed STIP3-1 variant]
4. TVGGLVKWILDTVKKFA-NH2 [STIP3-27, C-terminally amidated STIP3-1]

12.5 µg/mL
50 µg/mL
12.5 µg/mL
50 µg/mL

Parameters: items (list). Returns: MIC, S. aureus ATCC BAA 2313 (SCCmec XI) for each item.
1. TVGGLVKWILDTFKKFA [STIP3-11, rationally designed STIP3-1 variant]
2. TVKGLVKWILNVVKKFA-NH2 [STIP3-30, rationally designed STIP3-1 variant, C-terminal amide]
3. TVGGLVKWILATVKKFA-NH2 [STIP3-28, rationally designed STIP3-1 variant, C-terminal amide]
4. TVGGLVKWILATVKKFA [STIP3-2]
5. TVGGLVKWILKTVKKFA-NH2 [STIP3-29]

["100 µg/mL", "25 µg/mL", "12.5 µg/mL", "50 µg/mL", "6.25 µg/mL"]

----------
# System: MRSA ATCC BAA-41
# Assay: MIC determination in broth
# Assay type: cell-based, Staphylococcus aureus
# Experimental parameters: STIP3 variants, highest conc. tested 100 μg/mL; cation-adjusted MH broth, ~10^5 CFU/mL, 2-fold dilution series, 37°C, 16 h
No end group written: not given here.
I'd appreciate it if you could supply MIC, S. aureus ATCC BAA 41 (SCCmec II) values for the items below.
Give bare numbers, in mg/L.

Sample answers from the record:
[
  {
    "Substance": "TVGGLVKWILDTVKKFA-NH2 [STIP3-27, C-terminally amidated STIP3-1]",
    "MIC, S. aureus ATCC BAA 41 (SCCmec II) [mg/L]": 25
  },
  {
    "Substance": "TVGGLVKWILKTVKKFA-NH2 [STIP3-29]",
    "MIC, S. aureus ATCC BAA 41 (SCCmec II) [mg/L]": 6.25
  },
  {
    "Substance": "TVRALVRWILRTVARFA [STIP3-23, rationally designed STIP3-1 variant]",
    "MIC, S. aureus ATCC BAA 41 (SCCmec II) [mg/L]": 6.25
  },
  {
    "Substance": "TVRALVKWILRTVAKFA [STIP3-20, rationally designed STIP3-1 variant]",
    "MIC, S. aureus ATCC BAA 41 (SCCmec II) [mg/L]": 12.5
  }
]

# ---- query substance ----
Answer with reported MIC, S. aureus ATCC BAA 41 (SCCmec II) of TVAGLVKWILATVKKFA [STIP3-15, rationally designed STIP3-1 variant]
50

----------
# Tested on: MRSA ATCC 33592
# Assay: MIC determination in broth
# Type: cell-based, Staphylococcus aureus
# Experimental parameters: Table S5; STIP3 variants, highest conc. tested 100 μg/mL; cation-adjusted MH broth, ~10^5 CFU/mL, 2-fold dilution series, 37°C, 16 h
Reported property: MIC, S. aureus ATCC 33592 (SCCmec III) (µg/mL)
Give bare numbers, in µg/mL.

Sample answers from the record:
[
  {
    "Substance": "TVGGLVKWILDTVKKFA-NH2 [STIP3-27, C-terminally amidated STIP3-1]",
    "Target of assay": "MRSA ATCC 33592",
    "Unit name": "µg/mL",
    "MIC, S. aureus ATCC 33592 (SCCmec III)": 50
  },
  {
    "Substance": "TVGGLVKWILDTFKKFA [STIP3-11, rationally designed STIP3-1 variant]",
    "Target of assay": "MRSA ATCC 33592",
    "Unit name": "µg/mL",
    "MIC, S. aureus ATCC 33592 (SCCmec III)": 50
  }
]

# ---- query substance ----
Answer with reported MIC, S. aureus ATCC 33592 (SCCmec III) of TVKGLVKWILNVVKKFA-NH2 [STIP3-30, rationally designed STIP3-1 variant, C-terminal amide]
12.5

----------
I'd appreciate it if you could supply MIC, S. aureus ATCC 33592 (SCCmec III) values for the items below.
# Test system: MRSA ATCC 33592
# Assay: MIC determination in broth
# Assay type: cell-based, Staphylococcus aureus
# Experimental parameters: Table S5; STIP3 variants, highest conc. tested 100 μg/mL; cation-adjusted MH broth, ~10^5 CFU/mL, 2-fold dilution series, 37°C, 16 h
No end group written: not given here.
I'd appreciate it if you wrote the number followed by its unit.

Parameters: items (list). Returns: MIC, S. aureus ATCC 33592 (SCCmec III) for each item.
1. TVGGLVKWILKTVKKFA-NH2 [STIP3-29]
2. TVKGLVKWILATVKKFA [STIP3-16, rationally designed STIP3-1 variant]
3. TVGGLVKWILKAVKKFA [STIP3-13, rationally designed STIP3-1 variant]
4. TVKGLVKWILNVVKKFA [STIP3-14, rationally designed STIP3-1 variant]
5. TVKALVKWILKTVAKFW [STIP3-21, rationally designed STIP3-1 variant]

6.25 µg/mL
50 µg/mL
25 µg/mL
12.5 µg/mL
25 µg/mL

----------
I'd appreciate it if you could supply MIC, S. aureus ATCC BAA 41 (SCCmec II) values for the items below.
# System: MRSA ATCC BAA-41
# Assay: MIC determination in broth
# Type: cell-based, Staphylococcus aureus
# Experimental parameters: STIP3 variants, highest conc. tested 100 μg/mL; cation-adjusted MH broth, ~10^5 CFU/mL, 2-fold dilution series, 37°C, 16 h
No end group written: not given here.
One number for each entry, in µg/mL.

Sample answers from the record:
[
  {
    "Substance": "TVKALVKWILKTVAKFA [STIP3-19, rationally designed STIP3-1 variant]",
    "Quantitative readout": 50
  },
  {
    "Substance": "TVGGLVKWILATVKKFA-NH2 [STIP3-28, rationally designed STIP3-1 variant, C-terminal amide]",
    "Quantitative readout": 12.5
  }
]

Parameters: items (list). Returns: MIC, S. aureus ATCC BAA 41 (SCCmec II) for each item.
1. TVGGLVKWILDTFKKFA [STIP3-11, rationally designed STIP3-1 variant]
2. TVGGLVKWILDVVKKFA [STIP3-9, rationally designed STIP3-1 variant]
3. TVGGLVKWILATVKKFA [STIP3-2]
4. TVKGLVKWILATVKKFA [STIP3-16, rationally designed STIP3-1 variant]
5. TVKALVKWILKTVAKFW [STIP3-21, rationally designed STIP3-1 variant]

1: 50; 2: 35; 3: 100; 4: 50; 5: 25

Parameters: items (list). Returns: MIC, S. aureus ATCC BAA 41 (SCCmec II) for each item.
1. TVGGLVKWILKAVKKFA [STIP3-13, rationally designed STIP3-1 variant]
2. TVKKLVKWILKTVKKFA [STIP3-18, rationally designed STIP3-1 variant]
3. TVKALVKWILKTVAKFW-NH2 [STIP3-31, rationally designed STIP3-1 variant, C-terminal amide]
4. TVGGLVKWILDWVKKFA [STIP3-10, rationally designed STIP3-1 variant]
5. TVKGLVKWILNVVKKFA-NH2 [STIP3-30, rationally designed STIP3-1 variant, C-terminal amide]
6. TVGGLVKWILNTVKKFA [STIP3-4, rationally designed STIP3-1 variant]
7. TVGGLVKWILKTVKKFA [STIP3-3, rationally designed STIP3-1 variant]

12.5
100
25
100
25
50
25
